Target: T1, human IL1RAP on the cell surface (human, UniProt Q9NPH3 21-570)
T1 sequence (looked up): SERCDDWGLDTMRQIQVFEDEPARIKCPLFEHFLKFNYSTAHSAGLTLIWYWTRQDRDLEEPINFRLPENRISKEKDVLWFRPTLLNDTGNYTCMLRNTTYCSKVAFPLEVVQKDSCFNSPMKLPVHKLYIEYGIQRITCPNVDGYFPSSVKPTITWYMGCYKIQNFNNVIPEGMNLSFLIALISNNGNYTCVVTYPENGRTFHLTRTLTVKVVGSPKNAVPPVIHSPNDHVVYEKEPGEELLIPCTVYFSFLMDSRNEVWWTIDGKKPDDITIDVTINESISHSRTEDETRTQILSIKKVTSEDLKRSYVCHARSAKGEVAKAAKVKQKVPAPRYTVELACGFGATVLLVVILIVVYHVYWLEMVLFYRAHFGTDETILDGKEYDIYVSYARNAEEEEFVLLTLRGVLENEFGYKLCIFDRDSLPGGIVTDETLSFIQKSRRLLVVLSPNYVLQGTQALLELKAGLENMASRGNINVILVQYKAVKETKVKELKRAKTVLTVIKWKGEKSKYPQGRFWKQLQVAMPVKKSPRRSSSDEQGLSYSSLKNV
Assay: cell-based or functional assay
Measurement kind: IC50 of IL-33 signaling (HEK-Blue assay)

{"Binder": "h48D2 VH5:VL2 (antibody, human IgG1, kappa, L234A L235A, V domains shown, Humanized; also called VL2:VH5) VH: QEQLEESGGGLVKPGGTLSLTCTVSGPSLSHFDITWIRQAPGSGLEWIGTISPGVSTYYASWAKSRVTISVDTSLNTVSLKLSSVTAADTATYFCARGGVGSSWKAFDLWGPGTLVTISS VL: QIVLTQSPATLSASVGDRVTITCQASESISTALAWYQQKPGKAPKLLIYKASTLPSGVPSRFSGSGSGTEFTLTISSLQPDDSATYYCQQGFSSGNVHNAFGQGTKLEIKR", "Measurement kind": "IC50 of IL-33 signaling (HEK-Blue assay)", "Obs value": "0.647 nM"}
{"Binder": "h48D2 VH5:VL3 (antibody, human IgG1, kappa, L234A L235A, V domains shown, Humanized; also called VL3:VH5) VH: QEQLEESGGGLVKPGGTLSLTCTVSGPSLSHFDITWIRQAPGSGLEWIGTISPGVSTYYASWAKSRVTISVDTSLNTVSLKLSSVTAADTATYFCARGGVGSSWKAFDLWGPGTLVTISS VL: DILLTQTPSVVSASVGDRVTITCQASESISTALAWYQQKPGQAPRLLIYKASTLPSGVPSRFRGSGSGTDFTLTITSLQPEDFATYYCQQGFSSGNVHNAFGGGTRLEIKR", "Measurement kind": "IC50 of IL-33 signaling (HEK-Blue assay)", "Obs value": "2.72 nM"}
{"Binder": "h48D2 VH1:VL5 (antibody, human IgG1, kappa, L234A L235A, V domains shown, Humanized; also called VL5:VH1) VH: EVQLEESGGGLVKPGGSLRLSCAASGPSLSHFDITWVRQAPGKGLEWVSTISPGVSTYYASWAKSRFTISRDNSKNTLYLQMNSLRAEDTAVYYCARGGVGSSWKAFDLWGRGTLVTVSS VL: APVLTQSPATLEASVGDRVTITCQASESISTALAWYQQKPGQPPKLLIYKASTLPSGVPSRFSGSGSGTEFTLTISDLESDDAATYYCQQGFSSGNVHNAFGGGTEVVVKR", "Measurement kind": "IC50 of IL-33 signaling (HEK-Blue assay)", "Obs value": "74.7 nM"}
{"Binder": "h48D2 VH1:VL1 (antibody, human IgG1, kappa, L234A L235A, V domains shown, Humanized; also called VL1:VH1) VH: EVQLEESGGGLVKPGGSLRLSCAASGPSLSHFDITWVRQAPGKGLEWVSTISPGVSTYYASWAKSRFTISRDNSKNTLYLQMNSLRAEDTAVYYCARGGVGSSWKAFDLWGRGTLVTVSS VL: DIVMTQSPSSLSASVGDRVTITCQASESISTALAWYQQKPGKAPKLLIYKASTLPSGVPSRFSGSGSGTDFTLTISSLQPEDFATYYCQQGFSSGNVHNAFGGGTKVVIKR", "Measurement kind": "IC50 of IL-33 signaling (HEK-Blue assay)", "Obs value": "254 nM"}
{"Binder": "h48D2 VH4:VL4 (antibody, human IgG1, kappa, L234A L235A, V domains shown, Humanized; also called VL4:VH4) VH: QVQLQESGPGLVKPSETLSLTCTVSGPSLSHFDITWIRQPPGKGLEWIGTISPGVSTYYASWAKSRFTISVDTSKNQFSLKLTSVTAADTATYYCARGGVGSSWKAFDLWGPGTLVTVSS VL: ELVMTQSPSSVSASVGDRVTITCQASESISTALAWYQQKPGKAPKLLIYKASTLPSGVPSRFSGSGSGTDFTLTINSLQPEDFATYYCQQGFSSGNVHNAFGGGTKVEIKR", "Measurement kind": "IC50 of IL-33 signaling (HEK-Blue assay)", "Obs value": "260 nM"}

Taken from patent US20220242950A1.
